Measurement Notes: qHTS to identify inhibitors of the type 1 interferon - major histocompatibility complex class I in skeletal muscle: primary screen against the NCATS LOPAC collection (AID 1347405);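 further: human myoblasts with HiBiT tag on endogenous HLA-B stimulated by IFN-beta; lytic HiBiT luminescence reporting HLA-B protein level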
Cond: iHSKM muscle cells, IFN-b-induced MHC-I HiBiT luminescence, 24 h; series mostly up to 45.9 µM
Excerpt: Assay Submitter (PI): Travis B. Kinder Ph.D. & James Inglese Ph.D. Assay Development and Screening Technology Laboratory (ADST) National Center for Advancing Translational Sciences (NCATS), Rockville, MD National Institute of Health (NIH), Bethesda, Maryland […]
Inconclusive results are not listed. Calls of active or inactive are those of the source. The call rests on the fitted dose curve; in most records, active means well fitted inhibition curve with a large enough effect; inconclusive means small, poorly fitted or top-dose-only effect; inactive means flat fitted curve, though single readings scatter. Residues, ends and D or L forms follow the SMILES beside them. *: point of attachment. Cbz = O=C(OCc1ccccc1)*
Classes used: active, inactive

NC1(C(=O)O)CC1
inactive
NOCC(=O)O
inactive
CC(C)C[C@H](NC(=O)C1OC1C(=O)O)C(=O)NCCCCN=C(N)N (stereo partly drawn)
inactive
O=C(O)/C(=C/c1c(C(=O)O)[nH]c2cc(Cl)cc(Cl)c12)c1ccccc1
inactive
c1ccc2c(c1)CC(N1CCN(c3cccc4c3OCCO4)CC1)C2
inactive
CCCCCCC/C=C\CCCCCCCCC(=O)O
inactive
Oc1cc(O)c2c(c1)O[C@H](c1ccc(O)c(O)c1)[C@@H](O)C2
inactive
NC(N)=[N+]1CCc2ccccc2C1
inactive
NCCS(=O)O
inactive
O=C(O)CCC/C=C\C[C@@H]1[C@@H](/C=C/[C@H](O)C2Cc3ccccc3C2)[C@@H](F)C[C@@H]1O
inactive
N[C@@H](Cc1ccc(O)c(I)c1)C(=O)O
inactive
C[N+](C)(C)CC=O
inactive
O=C(O)C1=CCCN(CCON=C(c2ccccc2)c2ccccc2)C1
inactive
C=CCN1CCc2c(cc(O)c(O)c2Cl)C(c2ccccc2)C1 (stereo not drawn)
inactive
NC1(C(=O)O)CCc2cc(C(=O)O)ccc21 (stereo not drawn)
inactive
COCc1nc2c([nH]1)c(=O)n(C)c(=O)n2CC(C)C
inactive
O=C(O)C1=CCNCC1
inactive
C[C@](Cc1ccc(O)c(O)c1)(NN)C(=O)O
inactive
CC(=O)NCCc1c[nH]c2ccc(O)cc12
inactive
OC[C@H]1NC[C@@H](O)[C@@H]1O
inactive
CSC(N)=NCCC[C@H](N)C(=O)O
inactive
c1ccc(CN2CCC3(CCCc4ccccc43)CC2)cc1
inactive
CCCc1c(-c2ccc(O)cc2)nn(-c2ccc(O)cc2)c1-c1ccc(O)cc1
inactive
NC(N)=N[C@@H](CCC(=O)O)C(=O)O
inactive
C=CCN1CCc2cc(O)c(O)cc2C(c2ccccc2)C1 (stereo not drawn)
inactive
CC1=C(C(=O)O)N2C(=O)[C@@H](NC(=O)C(N)C3=CCC=CC3)[C@H]2SC1 (stereo partly drawn)
inactive
CCCn1c(=O)c2[nH]c(C3CCCC3)nc2n(CCC)c1=O
inactive
O=C(O)c1ccccc1Nc1cccc(OCc2ccc3ccccc3n2)c1
inactive
Nc1ccc(CCNc2ncnc3c2ncn3C2OC(CO)C(O)C2O)cc1 (stereo not drawn)
inactive
CN(C)CCCc1cc(C(=O)Nc2ccc(-c3ccncc3)cc2)ccc1O
inactive
Nc1ncnc2c1ncn2C1CCCC1
inactive
N#Cc1cc2nc(O)c(O)nc2cc1[N+](=O)[O-]
inactive
CC1=C(/C=C/C(C)=C/C=C/C(C)=C\C(=O)O)C(C)(C)CCC1
inactive
CCCCCCCCCCCCCCSCC(=O)O
inactive
N[C@H](C(=O)O)[C@H](O)C(=O)O
inactive
CC(N)=NCCCC[C@@H](N)C(=O)O
inactive
N=C(N)SCCc1cnc[nH]1
inactive
Cc1nc(N=Nc2ccc(S(=O)(=O)O)cc2S(=O)(=O)O)c(COP(=O)(O)O)c(C=O)c1O
inactive
CC(C)[C@H](NC(=O)OCc1ccccc1)C(=O)N[C@H](C=O)Cc1ccccc1 (Cbz-Val-Phe-aldehyde)
inactive
Cn1cc(C(=O)OCC2CCN(CCNS(C)(=O)=O)CC2)c2ccccc21
inactive
Nc1ncnc2c1nc(Br)n2C1OC2COP(=O)(O)O[C@@H]2C1O (stereo partly drawn)
inactive
CN1CC(O)C(O)C(O)C1CO (stereo not drawn)
inactive
CN[C@H](CC(=O)O)C(=O)O
inactive
CC(C)NC[C@H](O)COc1ccc(CC(N)=O)cc1
inactive
O=C1Cc2c([nH]c3ccc(Br)cc23)-c2ccccc2N1
active
CCCCCCCCCC[Si](C)(C)CCC(=O)NC(Cc1ccc(C)cc1)c1ccccc1 (stereo not drawn)
inactive
COc1cc(C(O)C(=O)O)ccc1O (stereo not drawn)
inactive
CC(C)Cn1c(=O)n(C)c(=O)c2[nH]cnc21
inactive
